# experimental_details: Inhibition of PKA (unknown origin) using CREBtide as substrate by ADP-Glo kinase assay
# Parameters: species or system Homo sapiens
pIC50: −log10 of the molar value.
reported_metric: pIC50

// solved cases for pIC50 follow
INSERT INTO results (compound, experimental_result) VALUES
  ('CC1=C(C(=O)Nc2ccc3[nH]ncc3c2)C(c2ccc(F)c(C(=O)NCCc3ccccn3)c2)NC(=O)N1 (stereo not drawn)', '< 4.00'),
  ('CC1=C(C(=O)Nc2ccc3[nH]ncc3c2)C(c2ccc(F)c(C(=O)NCc3cccc(F)c3)c2)NC(=O)N1 (stereo not drawn)', '< 4.00'),
  ('CC1=C(C(=O)Nc2ccc3[nH]ncc3c2)C(c2ccc(F)c(C(=O)O)c2)NC(=O)N1 (stereo not drawn)', 4.11),
  ('CC1=C(C(=O)Nc2ccc3[nH]ncc3c2)C(c2ccc(F)c(C(=O)NCc3ncccc3C)c2)NC(=O)N1 (stereo not drawn)', '< 4.00'),
  ('COc1ccc(CNC(=O)c2cc(C3NC(=O)NC(C)=C3C(=O)Nc3ccc4[nH]ncc4c3)ccc2F)cc1 (stereo not drawn)', '< 4.00'),
  ('CC1=C(C(=O)Nc2ccc3[nH]ncc3c2)C(c2ccc(F)c(C(=O)NCc3cc(C(F)(F)F)cc(C(F)(F)F)c3)c2)NC(=O)N1 (stereo not drawn)', '< 4.00'),
  ('CC1=C(C(=O)Nc2ccc3[nH]ncc3c2)C(c2ccc(F)c(CC(=O)NCc3c(C(F)(F)F)cccc3C(F)(F)F)c2)NC(=O)N1 (stereo not drawn)', '< 4.00');

Now consider a different compound.
Dear colleague, I am looking for the recorded pIC50 of the following compound: CC1=C(C(=O)Nc2ccc3c(c2)OCO3)C(c2ccc(F)c(C(=O)NCc3ccccn3)c2)NC(=O)N1 (stereo not drawn) < 4.00
